Listed here: items and their measured Kd.
# tgt: T1, cynoTIGIT-mFc (fusion protein of cynoTIGIT extracellular domain and mouse IgG2a Fc fragment) (cynomolgus)
# T1 construct: also called monkey TIGIT; cynomolgus TIGIT-mFc fusion protein
# testDescription: SPR (Biacore T200), antibody held by Fc affinity capture, cynoTIGIT-mFc in mobile phase, 1:1 Langmuir fit
reportedMetric: Kd

INSERT INTO measurements (binder, reportedmetric, result) VALUES
  ('h1709-10 (antibody, human IgG4 S228P, kappa, V domains shown, also called humanized TIGIT antibody h1709-10) VH: EVQLVQSGAEVKKPGASVKVSCKASGYTFTDYYMHWVRQAPGQGLEWMGLVYPYNDNTGYNRKFKGRVTMTVDTSTSTVYMELNSLRSEDTAVYYCARGGPSNWNYFDYWGQGTLVTVSS VL: DIQMTQSPSSLSASVGDRVTITCKASQNVVTAVAWYQQKPGKSPKLLIYSASNRYTGVPDRFSGSGSGTDFTLTISSLQPEDFATYFCQQYTLYPLTFGGGTKVEIKR', 'Kd', '0.3 nM'),
  ('h1708-04 (antibody, human IgG4 S228P, kappa, V domains shown, also called humanized TIGIT antibody h1708-04) VH: EVQLVQSGAEVKKPGASVKVSCKASGYTFTNYWMHWVRQAPGQGLEWMGRIDPDSTGSKYNEKFKTRVTMTRDTSTSTVYMELSSLRSEDTAVYYCAREGAYGYYFDYWGQGTLVTVSS VL: DIQMTQSPSSLSASVGDRVTITCRASENIYSYLAWYQQKPGKSPKLLIYNARTLAEGVPSRFSGSGSGTDFTLTISSLQPEDFATYYCQYHSGSPLPFGGGTKVEIKR', 'Kd', '0.285 nM'),
  ('22G2-H3Q (antibody, human IgG4 S228P, kappa, V domains shown) VH: QVQLQESGPGLVKPSETLSLTCTVSGGSVSSGIYYWSWIRQPPGKGLEWIGYIYYSGSTNYNPSLKSRVTISVDTSKNQFSLKLSSVTAADTAVYYCARDYYVSGNYYNVDYYFFGVDVWGQGTTVTVSS VL: EIVLTQSPATLSLSPGERATLSCRASQSVSSYLAWYQQKPGQAPRLLIYDASNRATGIPARFSGSGSGTDFTLTISSLEPEDFAVYYCQQRSNWPPLFTFGPGTKVDIKR', 'Kd', '0.166 nM'),
  ('h1710-01 (antibody, human IgG4 S228P, kappa, V domains shown, also called humanized TIGIT antibody h1710-01) VH: EVQLVQSGAEVKKPGASVKVSCKASGYTFTNYYMHWVRQAPGQGLEWMGRIDPTSGATKYNDNFKGRVTMTRDTSTSTVYMELSSLRSEDTAVYYCAREGGFGYYFDYWGQGTTVTVSS VL: DIQMTQSPSSLSASVGDRVTITCRTSENIFTYLAWYQQKPGKAPKLLIYNAKTFAEGVPSRFSGSGSGTDFTLTISSLQPEDFATYYCQHHYGIPLPFGQGTKLEIKR', 'Kd', '0.322 nM');
